Biological target: KRAS G12C (GMPPNP-loaded) and cRAF Ras-binding domain (Homo sapiens, UniProt P01116, C118S/C51S/C80L/G12C)
Construct: truncated version comprising amino acids 1-169
Sequence (P01116 1-169 isoform P01116-2 G12C/C51S/C80L/C118S): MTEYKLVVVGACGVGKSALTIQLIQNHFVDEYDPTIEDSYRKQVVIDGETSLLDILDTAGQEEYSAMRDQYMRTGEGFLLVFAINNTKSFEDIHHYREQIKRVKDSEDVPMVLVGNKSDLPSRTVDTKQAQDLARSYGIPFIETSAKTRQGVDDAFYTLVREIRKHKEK
Experiment: Inhibition of KRAS G12C and cRAF binding (AlphaScreen)
Details: KRAS G12C preloaded with GTP analogue GMPPNP, 2 hours preincubation
Measurement Label: IC50

Query block: Data request, read-out IC50, for `CN(C)CC#CC(=O)N1CC[C@@H](N(C)c2nc(OC[C@@]34CCCN3C[C@H](F)C4)nc3c(F)c(-c4nc(N)cc5cccc(F)c45)ncc23)C1`
Result block: < 10 nM

Query block: Would you kindly share the measured IC50 for `C=CC(=O)N1CC[C@@H](N(C)c2nc(OC[C@@]34CCCN3C[C@H](F)C4)nc3c(F)c(-c4cc(OC)cc5nccnc45)ncc23)C1` ?
Result block: ≥ 500 nM

Query block: Please report the recorded IC50 for `C=CC(=O)N1CC[C@@H](N(C)c2nc(OC[C@@]34CCCN3C[C@H](F)C4)nc3c(F)c(-c4ccccc4C(F)F)ncc23)C1` .
Result block: ≥ 500 nM

Query block: # input compound: `Cc1cc(N)nc(-c2ncc3c(N(C)[C@@H]4CCN(C(=O)/C=C/c5nc(C(C)C)no5)C4)nc(OC[C@@]45CCCN4C[C@H](F)C5)nc3c2F)c1C1CC1` ; wanted: its IC50
Result block: 10 to 100 nM

Query block: # query: IC50 of entry `C=CC(=O)N1CC[C@@H](N(C)c2nc(OC[C@@]34CCCN3C[C@H](F)C4)nc3c(F)c(-c4nc(N)ccc4F)ncc23)C1`
Result block: ≥ 500 nM

Query block: Given the compound `CN(c1nc(OC[C@@]23CCCN2C[C@H](F)C3)nc2c(F)c(-c3nc(N)cc4cccc(Cl)c34)ncc12)[C@@H]1CCN(C(=O)/C=C/CN2CCOCC2)C1` , what is its reported IC50?
Result block: 100 to 500 nM

Query block: Recorded IC50 of Cc1noc(/C=C/C(=O)N2CC[C@@H](N(C)c3nc(OCC45CCCN4CCC5)nc4c3C[C@@H](C)[C@H](c3nc(N)cc(C)c3C(F)(F)F)C4)C2)n1 (single isomer, unassigned) [Compound 9] , please.
Result block: 100 to 500 nM

Query block: Which measured IC50 value corresponds to `C=CC(=O)N1CC[C@@H](N(C)c2nc(OC[C@@]34CCCN3C[C@H](F)C4)nc3c(F)c(-c4nccc5cccc(Cl)c45)ncc23)C1` ?
Result block: ≥ 500 nM

Query block: Name the reported IC50 value associated with the compound CN1CC[C@@H]1/C=C/C(=O)N1CC[C@@H](N(C)c2nc(OC[C@@]34CCCN3C[C@H](F)C4)nc3c(F)c(-c4nc(N)cc5cccc(Cl)c45)ncc23)C1 [Example 99]
Result block: < 10 nM

Query block: Endpoint output: IC50 of `CC(C)c1noc(/C=C/C(=O)N2CC[C@@H](N(C)c3nc(OC[C@@]45CCCN4C[C@H](F)C5)nc4c(F)c(-c5nc(N)ccc5C(F)(F)F)ncc34)C2)n1` . Value?
Result block: 10 to 100 nM

Query block: So what's the measured IC50 for this one? `C=CC(=O)N1CC[C@@H](N(C)c2nc(OC[C@@]34CCCN3C[C@H](F)C4)nc3c(F)c(-c4c[nH]nc4C(F)(F)F)ncc23)C1`
Result block: ≥ 500 nM
